Please go through the items and note down their EC50.
target: MC4-R (Homo sapiens, UniProt P32245); assay: cAMP agonist stimulation, high receptor density system (10 ng/mL doxycycline)
Sequence (P32245 whole entry): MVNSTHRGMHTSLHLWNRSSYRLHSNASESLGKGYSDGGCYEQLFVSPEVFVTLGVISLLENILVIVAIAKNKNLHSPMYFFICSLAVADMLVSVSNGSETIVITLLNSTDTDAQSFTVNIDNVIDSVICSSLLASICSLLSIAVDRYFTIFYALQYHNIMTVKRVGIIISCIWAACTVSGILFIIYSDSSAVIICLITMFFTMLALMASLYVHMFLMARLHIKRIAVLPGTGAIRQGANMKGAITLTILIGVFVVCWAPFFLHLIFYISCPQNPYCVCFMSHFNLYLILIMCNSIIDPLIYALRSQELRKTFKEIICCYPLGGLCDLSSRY
Positions of bridges follow the written chain, without caps; N, C: chain ends. Non-standard residues stand in square brackets, D forms with d. Residues, ends and D or L forms follow the SMILES beside them. 1Nal = N[C@@H](Cc1cccc2ccccc12)C(=O)O; Nle = CCCC[C@H](N)C(=O)O
Give bare numbers, in µM.

Recorded results for 3 compounds are shown here.
{"COMPOUND": "Cc1ccc(C[C@@H](N)C(=O)N2C[C@@H](C)N(CCc3ccc4ccccc4c3)C[C@@H]2CCCNC(=N)N)c(C)c1", "QUANTITY NAME": "EC50", "RECORDED MEASUREMENT": 0.129}
{"COMPOUND": "Cc1cc(Cl)ccc1C[C@@H](N)C(=O)N1C[C@@H](C)N(CCc2ccc3ccccc3c2)C[C@@H]1CCCNC(=N)N", "QUANTITY NAME": "EC50", "RECORDED MEASUREMENT": 0.031}
{"COMPOUND": "C[C@@H]1CN(C(=O)[C@H](N)Cc2ccc3ccccc3c2)[C@@H](CCCNC(=N)N)CN1C(=O)Cc1c[nH]c2ccccc12", "QUANTITY NAME": "EC50", "RECORDED MEASUREMENT": 0.039}

For each listed entry, give its EC50.
1. CCCC[C@H](NC(C)=O)C(=O)N[C@H]1CC(=O)NCCCC[C@@H](C(=O)NCC)NC(=O)[C@H](Cc2cccc3ccccc23)NC(=O)[C@H](CCCNC(=N)N)NC(=O)[C@@H](Cc2ccccc2)NC(=O)[C@H](Cc2c[nH]cn2)NC1=O
2. CCCC[C@H](NC(C)=O)C(=O)N[C@H]1CC(=O)NCCCC[C@@H](C(=O)N(C)C)NC(=O)[C@H](Cc2cccc3ccccc23)NC(=O)[C@H](CCCNC(=N)N)NC(=O)[C@@H](Cc2ccccc2)NC(=O)[C@H](Cc2c[nH]c3ccccc23)NC1=O [Example 36] (Ac-[Nle]DW[dF]R[1Nal]K-NMe2; lactam 2-7)

[0.0011, 0.004]
